Kindly state RP-LC retention time for each of the entries shown.
- EXPERIMENT NOTES: gradient 5% acetonitrile 3 min, to 50% in 2 min, to 85% in 15 min, held 3 min, 100 µL/min
- CONDITION CONTEXT: column: Zorbax Extend-C18 2.1 x 50 mm; eluents: water / acetonitrile, 0.1% formic acid
Please respond with the number in s and leave the unit unwritten.

Query: Which RP-LC retention time value is on record for `CS(=O)(=O)Nc1ccc(N2CCCCS2(=O)=O)cc1` ?
Reply: 615

Query: Follow-up item: Cc1ccccc1C1CCCN1C(=O)c1nn(C)cc1Cl (stereo not given)
Reply: 849

Query: Follow-up item: COC(=O)CCSCc1ccc(-c2onc(C)c2NC(=O)OC(C)c2ccccc2Cl)cc1 (stereo not given)
Reply: 1150

Query: Follow-up item: CC(Cc1ccco1)NC(=O)c1ccc2nc(Cc3ccccc3)oc2c1 (stereo not given)
Reply: 947

Query: Follow-up item: `CCN1c2ccc(F)cc2C(=O)NC12CCN(C(=O)c1ccccc1C)CC2`
Reply: 835

Query: Follow-up item: `CCc1nc(N)n(CC(=O)Nc2cc(F)ccc2C)c(=O)c1C`
Reply: 620

Query: Follow-up item: `Cc1cc2nn(CC(=O)Nc3ccc(C)c(C)c3)c(=O)n2c(N2CCCC2)n1`
Reply: 1010

Query: Follow-up item: `Cc1nc2c(sc3cccc(F)c32)c(=O)n1CC(=O)Nc1ccccc1C(F)(F)F`
Reply: 841

Query: Follow-up item: `Cc1cc(C(=O)NC(C)C)c2cc(Br)ccc2n1`
Reply: 702

Query: Follow-up item: `Cc1csc(-c2cc(S(=O)(=O)NCCCN3CCc4ccccc4C3)c(C)s2)n1`
Reply: 708

* * *

- EXPERIMENT NOTES: gradient 5% acetonitrile 3 min, to 50% in 2 min, to 85% in 15 min, held 3 min, 100 µL/min
- CONDITION CONTEXT: column: Zorbax Extend-C18 2.1 x 50 mm; eluents: water / acetonitrile, 0.1% formic acid
Kindly state RP-LC retention time for each of the entries shown.
Please respond with the number in s and leave the unit unwritten.

Query: Which RP-LC retention time value is on record for O=C(CCC1CCCN(c2cc(NC3CC3)ncn2)C1)NCc1ccc(F)cc1 (centres undefined) ?
Reply: 676

Query: Follow-up item: `Cc1ccc(-c2cn3c(CC(=O)NCc4ccco4)csc3n2)cc1C`
Reply: 750

Query: Follow-up item: `COc1ccc(-c2ncc3c(n2)CCN(S(=O)(=O)c2ccc(C)c(Cl)c2)C3)cc1`
Reply: 1180

Query: Follow-up item: COc1ccc2c(c1)N(CC(C)CN(C)C)c1ccccc1S2 (centres undefined)
Reply: 804

Query: Follow-up item: COC(=O)c1c(C)c(C(=O)C(C)N(Cc2ccc(F)cc2)C(=O)C2CCCC2)c(C)n1C (centres undefined)
Reply: 1090

Query: Follow-up item: CC(NC(=O)c1cnc(-c2ccccc2)nc1-c1ccncc1)c1ccc(F)cc1 (centres undefined)
Reply: 868

Query: Follow-up item: `Cc1ccc(-c2coc(-c3ccc(NC(=O)C(C)(C)C)cc3)n2)cc1`
Reply: 1220

Query: Follow-up item: CCOC(=O)C1C(=O)C=C(c2cccc(NS(C)(=O)=O)c2)CC1c1ccccc1F (centres undefined)
Reply: 840

Query: Follow-up item: `Cc1ccc(-c2nnc(-c3cccc(S(=O)(=O)NC(C)(C)C)c3)o2)cc1`
Reply: 1030
